Target: RacWT
Experiment: inhibitors of GTP binding, eight-GTPase multiplex, SAR follow-up, biochemical, bead flow cytometry, Mg non-chelator buffer, round 2 (AID 588622)
Settings: bead-based flow cytometry multiplex GTP binding
readout_label: EC50

// worked examples, EC50 included
[
  {
    "molecule": "CC1(C)Cc2c(sc(NC(=S)NC(=O)c3cccc(F)c3)c2C(=O)O)CO1",
    "EC50": "491 nM"
  },
  {
    "molecule": "CC1(C)Cc2c(sc(NC(=S)NC(=O)c3ccc(F)cc3)c2C(=O)O)CO1",
    "EC50": "147 nM"
  },
  {
    "molecule": "O=C(NC(=S)Nc1sc2c(c1C(=O)O)CC1(CCCC1)OC2)c1ccccc1",
    "EC50": "56 nM"
  }
]

Find the recorded EC50 belonging to CC1(C)CCc2sc(NC(=S)NC(=O)c3ccccc3)c(C(=O)O)c2C1 and report it. 48 nM

Need EC50, item CC(C)(C)C1Cc2c(sc(NC(=S)NC(=O)c3ccccc3)c2C(=O)O)CO1 (centres undefined) 139 nM

Would you kindly share the measured EC50 for CC1(C)Cc2c(sc(NC(=S)NC(=O)c3ccccc3F)c2C(=O)O)CO1 ? 452 nM

Which EC50 value belongs to CC1(C)Cc2c(sc(NC(=S)NC(=O)C3CCCCC3)c2C(=O)O)CO1 ? 495 nM

Quick one: EC50 of CC1(C)Cc2c(sc(NC(=S)NC(=O)c3ccco3)c2C(=O)O)CO1 ? 59 nM

Give its EC50 value. Item: CC1(C)Cc2c(sc(NC(=S)NC(=O)c3ccc(Br)cc3)c2C(=O)O)CO1 391 nM

What measured EC50 goes with Cc1ccc(C(=O)NC(=S)Nc2sc3c(c2C(=O)O)CC(C)(C)OC3)cc1 ? 147 nM

Endpoint output: EC50 of COc1ccc(C(=O)NC(=S)Nc2sc3c(c2C(=O)O)CC(C)(C)OC3)cc1 . Value? 197 nM

Tell me the measured EC50 of CCC1(C)Cc2c(sc(NC(=S)NC(=O)c3ccccc3)c2C(=O)O)CO1 (centres undefined) , please. 53 nM

Given the entry Cc1ccccc1C(=O)NC(=S)Nc1sc2c(c1C(=O)O)CC(C)(C)OC2 , report its measured EC50. 438 nM

Query: EC50; subject: CC1(C)Cc2c(sc(NC(=S)NC(=O)c3cccs3)c2C(=O)O)CO1 29 nM
